# System: SNB-19
# method: NCI tumour cell line growth inhibition, 48 h
Calls of active or inactive are those of the source. Rule as the data show it: active = GI50 up to about 1.1 µM and inactive = higher.
assay endpoint: GI50

Consider the compound NNC(=O)c1nn[nH]c1SSc1[nH]nnc1C(=O)NN and give its measured GI50.
> 100 µM (inactive)

Cool, now CCCCC(N)CSSCC(N)CCCC (stereo unspecified)
58.5 µM (inactive)

Cool, now S=C(Nc1ccc(Br)cn1)NC12CC3CC(CC(C3)C1)C2
11 µM (inactive)

Cool, now CCCCCCCCCCCOc1ccc(C(=O)C(=O)c2ccc(OCCCCCCCCCCC)c(OCCCCCCCCCCC)c2)cc1OCCCCCCCCCCC
> 100 µM (inactive)

Cool, now O=[N+]([O-])/C=C/c1cc(Cl)c(/C=C/[N+](=O)[O-])cc1Cl
2.37 µM (inactive)

Cool, now CCN1C(=O)c2cc(OC)c(OC)cc2C(=O)C12OC(=O)c1cc3c(cc12)OCO3 (stereo unspecified)
39.5 µM (inactive)
